- Tested on: HL-60(TB) leukemia
- measurement.description: NCI-60 one-dose screen, 48 h
- reported.conditions: 10 µM unless noted
- Procedure: Growth inhibition of the HL-60(TB) human tumor cell line is measured as a screen for anti-cancer activity. Cells are grown in 96 well plates and exposed to the test compound for 48 hours. Compounds are tested at a single concentration, which is 10^-5 M for most compounds. The reported endpoint is percent growth (GI% or GIPRCNT), where numbers from 0 - 100% represent growth inhibition, and numbers from -100% - 0 represent cell death. For example, a value of 40 represents 60% growth inhibition. […]
Compounds without any hit were thinned out: in the full panel of roughly 83,000, 20% have a hit. The source made the active and inactive calls. The calls were made as follows: active = growth percent below 10; inactive = the rest.
Labels: active, inactive

molecule	class
O=C(NOC[C@H](O)CO)c1ccc(F)c(F)c1Nc1ccc(I)cc1F	active
CCOC(=O)CCC(NC(=O)c1ccc(N)cc1)C(=O)OCC (stereo not given)	inactive
Cc1c(C(=O)Nc2nc(-c3ccccc3)cs2)nnn1-c1ccccc1Br	inactive
C[C@]12CC[C@H]3[C@@H](C[C@@H]4N=C(c5ccc(O)cc5)S[C@@]45C[C@H](O)CC[C@]35C)[C@@H]1CC[C@@H]2O	inactive
CCc1ccc2c(c1)N(CCO)C1=C(C(=O)OC1)C2c1cccc(Cl)c1 (stereo not given)	active
Cn1ncc2cc3c(Nc4ccc(Cl)cc4)cccc3nc21	inactive
C=CN(C)S(C)(=O)=O	active
CSc1nc2c(c(=O)n1C)C1(C(=O)N(Cc3ccccc3)c3ccccc31)c1c(nc(SC)n(C)c1=O)N2	inactive
COc1ccc(-c2cc(=O)oc3ccc(Cl)cc23)cc1F	active
CNC(=O)NCC1OC(n2cnc3c(NC(=O)Nc4ccccc4)ncnc32)C2OC(C)(C)OC12 (stereo not given)	inactive

----------
- System: HL-60(TB) leukemia
- measurement.description: NCI-60 one-dose screen, 48 h (100 = growth as untreated, 0 = no growth, -100 = all killed)
- reported.conditions: 10 µM unless noted
Compounds without any hit were thinned out: in the full panel of roughly 83,000, 20% have a hit.
As shown below, each of these compounds has a reported growth value.

compound	growth / %
COc1ccc(-c2nc3c(N)c(CO)c(C)nc3o2)cc1	98.3
CCc1nnc(NC(=O)c2ccoc2COc2ccccc2)s1	19.3
O=C(Cn1ccnc1)Nc1ccc(-c2nc3ccccc3s2)cc1	77.3
Cn1c(=O)c2c(nc(Cl)n2CCl)n(C)c1=O	45.7
CC[C@H](Nc1cc(C)nc(N)n1)c1nc2cccc(NCc3ccc(C(=O)NO)cc3)c2c(=O)n1-c1ccccc1	2.35
Cn1cc(-c2ccc(F)c(C(F)(F)F)c2)nc1C1CCN(c2ncnc3[nH]ncc23)CC1	84.7
CCSc1ccc2c(c1)N(CCCN1CCN(C)CC1)c1ccccc1S2	37.1
O=C1Nc2ccccc2/C1=C/c1c[nH]c2ccccc12	102
O=C(COc1ccc(/C=C2\CSc3ccccc3C2=O)cc1)c1ccc(Cl)cc1	80
FC(F)=C(F)c1ccccc1	90.8
COc1cc(/C=C/c2cc(/C=C/c3ccc(O)c(OC)c3)n(-c3ccccc3)c(=O)n2)ccc1O	70.9
CC(=O)O[C@@]12CO[C@@H]1C[C@H](O)[C@@]1(C)C(=O)[C@H](O)C3=C(C)[C@@H](OC(=O)[C@H](O)[C@@H](NC(=O)OC(C)(C)C)c4ccccc4)C[C@@](O)([C@@H](OC(=O)c4ccccc4)C12)C3(C)C (some centres not stated)	-12.9
NS(=O)(=O)c1ccc(NCC(=O)Nc2ccc(-c3nc4ccccc4s3)cc2)cc1	33.4
N=C1/C(=C2\NC3C=CC=CC3S2)C(c2ccc(Cl)cc2)C2C(=O)N(c3ccccc3)C(=S)N12 (configuration not stated)	100
CCN1C(=O)C(C)C=C(C)C=C1C (configuration not stated)	94.4
CC(C)c1ccc(C(=O)Nc2sc3c(c2C(N)=O)CCC(=O)C3)cc1	-11.5
C[C@@H]1C=C2C(=O)O[C@@H]3CC[C@H](C1)[C@]23O	72.4
CS(=O)(=O)c1ccc(-c2nc3cc(Cl)ccc3n2CC(=O)N/N=C/c2ccc(Cl)cc2)cc1	25.3
O=C1OCC2=C1C(c1cccc(Br)c1)c1cc3c(cc1N2CCO)CCC3 (configuration not stated)	-25.5
Cn1cc(-c2noc(-c3cn(C)c4ncccc34)n2)c2cc(Cl)ccc21	80.2
CCCCCCCCNC(=O)C(C)C	99.7
COc1cc(/C=C2\CCCC3=C2NC(N)=NC3c2cc(OC)c(OC)c(OC)c2)cc(OC)c1OC (configuration not stated)	-7.5
